Biological target: T1, full-length mature human CD97 (residues Q21-I845) with N-terminal aspartic acid/lysine epitope tag, … (human, UniProt P48960 21-835); note: test concentration or dose not given here
T1 sequence (looked up): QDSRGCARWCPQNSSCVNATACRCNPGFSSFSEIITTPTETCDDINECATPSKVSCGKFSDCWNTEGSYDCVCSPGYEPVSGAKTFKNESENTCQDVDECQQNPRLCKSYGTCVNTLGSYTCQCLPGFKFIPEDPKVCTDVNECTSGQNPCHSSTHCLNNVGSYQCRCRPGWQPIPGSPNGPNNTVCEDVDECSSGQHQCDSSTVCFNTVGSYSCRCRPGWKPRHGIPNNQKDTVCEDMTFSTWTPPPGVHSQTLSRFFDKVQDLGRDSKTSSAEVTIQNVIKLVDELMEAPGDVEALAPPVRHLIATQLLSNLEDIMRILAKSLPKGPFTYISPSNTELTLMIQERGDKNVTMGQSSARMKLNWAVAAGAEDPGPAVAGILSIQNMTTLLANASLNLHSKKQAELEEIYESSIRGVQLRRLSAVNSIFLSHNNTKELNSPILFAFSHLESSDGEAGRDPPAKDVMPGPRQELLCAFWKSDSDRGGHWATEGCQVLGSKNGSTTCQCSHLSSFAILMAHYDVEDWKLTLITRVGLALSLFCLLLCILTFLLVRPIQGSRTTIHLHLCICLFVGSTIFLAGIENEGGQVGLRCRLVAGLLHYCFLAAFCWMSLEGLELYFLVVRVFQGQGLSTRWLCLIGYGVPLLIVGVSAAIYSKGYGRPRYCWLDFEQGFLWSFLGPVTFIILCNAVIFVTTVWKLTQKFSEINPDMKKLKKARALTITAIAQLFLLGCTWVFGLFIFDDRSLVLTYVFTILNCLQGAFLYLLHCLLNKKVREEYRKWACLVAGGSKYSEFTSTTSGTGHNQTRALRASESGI
Assay: cell-based or functional assay
readoutLabel: % live, FAB-saporin killing assay (%)
One number for each entry, in %.

Some binders with recorded % live, FAB-saporin killing assay:
| binder | % live, FAB-saporin killing assay (%) |
| --- | --- |
| SC93.256 (antibody, IgG2a, V domains shown, murine, IgG2a) VH: EVKLEESGGGLVQPGGSMKLSCAASGFTFSDAWMDWVRQSPEKGLEWVAEIRSKVNNHETYYAESVKGRFTISRDDSKSSVYLQMNSLRAEDTGIYYCIRNDYFDYWGQGTTLTVSS VL: DIQMTQTTSSLSASLGDRVTISCSASQGIRNYLNWYQQKPDGTVKLLIYYTSRLHSGVPSRFSGSGSGTDYSLTISNLEPEDIATYYCQQYGKLPYTFGGGTKLEIK | 92.4 |
| SC93.255 (antibody, V domains shown, Murine hybridoma antibody with a kappa light chain) VH: QVQLQQSDAELVKPGSSVKISCKVSGFTFTDHTIHWMKQRPEQGLEWIGYIYPRDGNTKYNEKFTGKATLTADRSSSTAYMQLNSLTSEDSAVYFCASSNWAQWYFDIWGTGTTVTVSS VL: DIQMTQSSSYLSVSLGGRVTITCKASDHINNWLAWYQQKPGNAPRLLIFGATSLETGVPSRFSGSGSGKDYTLSITSLQSEDVGTYYCQQYWSIPYTFGGGTKLEIK | 9.09 |
| SC93.267 (antibody, V domains shown, Murine hybridoma antibody with a kappa light chain; also called anti-hEMR2 antibody SC93.267) VH: EVQLQQSGPELVKPGASVRMSCKASGYTFTDYNMYWVKQSLGKSLEWIGYIYPNTGGATYNQKFKGKATLTVNKSSSTAFMELRSLTSEDSAVYYCGRGGLGPFAYWGQGTLVTVSA VL: DIQMTQSPSSLSASLGGKVTITCRASQDINKFISWYQHRPGKGPRLLIHYASTLQPGIPSRFSGSGSGRDYSFSISNLEPEDIATYYCLQYDNLWTFGGGTKLEIR | 89 |

Query: Quick one: % live, FAB-saporin killing assay of SC93.243 (antibody, IgG2b, V domains shown, murine, IgG2b) VH: QVQLQQSGAELMKPGASVKISCKATGYTFSSYWIEWVKQRPGHGLEWIGEILPGSGRTNYNERLKGKATFTADTSSNTAYMQLSSLTSEDSAVYYCARPYFYGSNFDFWGQGTTLTVSS VL: DIVMTQSHKFMSTSVGDRVSITCKASQDVGTAVAWYQQKPGQSPKLLIYWASTRHTGVPDRFTGSGSGTDFTLTISNVQSEDLADYFCQQYSSYHTFGGGTKLEIK ?
Reply: 91.9
